Reference source for all entries: ChEMBL document CHEMBL4689842

Test system: Fibroblast
ASSAY METHOD TEXT: Incucyte cell viability with human fibroblast; also: filed as whole numbers so only -1 and 0 and 1 occur
Assay type: toxicity, cell-based
PARTICULARS: 18 h, 10 µM, compound concentration 10 uM, replicate number 1, timepoint 18 hours
REPORTED PROPERTY: Growth Rate
// keep it numeric: no unit symbol after the value

Suppose we examine the molecule CC(C)c1onc(-c2c(Cl)cccc2Cl)c1COc1ccc(/C=C/c2cccc(C(=O)O)c2)c(Cl)c1 ; what Growth Rate value has been reported?
0

Moving on to the next molecule: CC(=O)c1c(NS(C)(=O)=O)c2cc(-c3ccc(Cl)cc3)c(-c3ccc(Cl)cc3Cl)nc2n(C)c1=O
0

Moving on to the next molecule: CCN(CC)S(=O)(=O)Nc1cccc(-c2ccc3c(NC(=O)C4CC4)n[nH]c3c2)c1
0

Moving on to the next molecule: CCCCCNC(=O)NS(=O)(=O)c1cc([N+](=O)[O-])ccc1NC1CCCCC1
1

Moving on to the next molecule: Cc1ccc(C(=O)Nc2cccc(C(F)(F)F)c2)cc1Nc1nc(-c2cccnc2)nc2c1cnn2C
0

Moving on to the next molecule: C[C@]12CCC(=O)C=C1CC[C@@H]1[C@@H]2[C@@H](O)C[C@]2(C=O)[C@@H](C(=O)CO)CC[C@@H]12
1

Moving on to the next molecule: CC1(C)CCC(C)(C)c2cc(NC(=O)c3ccc(C(=O)O)cc3)ccc21
0

Moving on to the next molecule: Cc1oncc1C(=O)Nc1ccc(C(F)(F)F)cc1 [LEFLUNOMIDE]
1

Moving on to the next molecule: C[C@@H](c1cccc(C#N)c1)n1cc(Cl)cc(C(N)=O)c1=N.Cl
1
